The values you see were collected from ChEMBL document CHEMBL3286148.

- experiment: Aqueous solubility of the compound
- Format: physicochemical
- test parameters: buffer
I would appreciate it if you labelled entries Y when solubility is 30 µM or higher, otherwise N.

molecule="CC(Oc1ccc2nc(N)n(CC(O)c3ccc(C(F)(F)F)cc3Cl)c2n1)C(F)(F)F (racemic)" class_name=N
molecule="Nc1nc2cccnc2n1CC(O)c1cccc(Cl)c1Cl (racemic)" class_name=N
molecule="Nc1nc2ccc(C(F)(F)F)cc2n1CC(O)c1ccc(C(F)(F)F)cc1Cl (racemic)" class_name=N
molecule="Nc1nc2ccc(OC3CCOC3)nc2n1CC(O)c1ccc(C(F)(F)F)cc1Cl (racemic)" class_name=Y
molecule="CN1CCN(c2ccc3nc(N)n(CC(O)c4ccc(C(F)(F)F)cc4Cl)c3n2)CC1 (racemic)" class_name=Y
